# target or test system: recombinant human EGFR L858R/C797S double mutant protein (Homo sapiens (Human), UniProt P00533, C797S/L858R)
# Sequence (P00533 25-1210 C797S/L858R): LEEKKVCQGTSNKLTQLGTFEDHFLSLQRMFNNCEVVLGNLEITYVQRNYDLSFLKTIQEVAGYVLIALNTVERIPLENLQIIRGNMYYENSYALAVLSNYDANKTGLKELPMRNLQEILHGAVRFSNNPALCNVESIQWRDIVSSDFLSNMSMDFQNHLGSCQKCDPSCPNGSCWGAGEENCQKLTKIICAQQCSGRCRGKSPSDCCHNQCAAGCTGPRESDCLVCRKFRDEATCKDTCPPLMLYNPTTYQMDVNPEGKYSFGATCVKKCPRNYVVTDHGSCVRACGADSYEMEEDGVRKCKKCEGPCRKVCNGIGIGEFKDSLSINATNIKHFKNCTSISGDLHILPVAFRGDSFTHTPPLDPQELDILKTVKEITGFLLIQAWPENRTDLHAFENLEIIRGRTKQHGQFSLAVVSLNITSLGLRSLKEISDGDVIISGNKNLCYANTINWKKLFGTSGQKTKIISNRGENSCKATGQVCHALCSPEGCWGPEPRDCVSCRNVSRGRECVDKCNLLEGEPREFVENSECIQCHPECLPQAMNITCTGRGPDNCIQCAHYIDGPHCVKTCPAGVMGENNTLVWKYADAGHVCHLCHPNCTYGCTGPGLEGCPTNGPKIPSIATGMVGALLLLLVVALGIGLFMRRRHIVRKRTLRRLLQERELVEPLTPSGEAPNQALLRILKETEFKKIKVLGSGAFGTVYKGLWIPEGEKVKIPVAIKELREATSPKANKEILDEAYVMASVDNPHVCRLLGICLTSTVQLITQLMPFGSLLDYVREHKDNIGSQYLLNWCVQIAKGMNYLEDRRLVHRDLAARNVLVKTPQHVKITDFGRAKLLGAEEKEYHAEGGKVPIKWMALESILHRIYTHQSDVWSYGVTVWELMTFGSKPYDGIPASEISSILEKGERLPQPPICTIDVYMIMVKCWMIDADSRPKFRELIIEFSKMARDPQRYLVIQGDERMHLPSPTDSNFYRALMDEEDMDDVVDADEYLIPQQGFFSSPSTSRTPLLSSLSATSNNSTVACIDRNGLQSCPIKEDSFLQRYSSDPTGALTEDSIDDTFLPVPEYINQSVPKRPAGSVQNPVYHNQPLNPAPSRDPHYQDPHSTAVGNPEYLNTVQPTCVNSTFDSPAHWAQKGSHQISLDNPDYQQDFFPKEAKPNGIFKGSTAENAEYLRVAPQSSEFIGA
# assay text: Biological Activity Assay B: biochemical assay against EGFR L858R/C797S protein (EGFR LR/CS)
# Description: In Row A of a 384-well polypropylene plate, was added 48 μL of DMSO. In wells A1 and A24, were added 12 μL of DMSO. […] To a well in Row A were added 12 μL of each 10 mM test compound stock (100% DMSO). […] To the black low volume assay ready plates, were added 5 μL of 40 uM Phosphosens peptide sensor/4 mM ATP working solution to each well. […] The slope of each curve was constructed using Dotmatics in each well, and each IC50s was calculated using a 4-parameter fit model.
log10 of IC50 reference
On a log10 scale: recorded IC50, unit nM.

Observe how each entry below is paired with its result.
>>> recorded_number("CN1CCN(c2ccc(-c3cc4c(-c5oc(CCCO)nc5-c5ccc(F)cc5)ccnc4[nH]3)cc2)CC1")
-0.95
>>> recorded_number("O=S1(=O)CCC[C@H](n2cc(-c3ncnc4oc(-c5ccccc5)cc34)c(-c3ccc(F)cc3)n2)C1 (single isomer, unassigned)")
0.44
>>> recorded_number("CN1CC=C(c2cc3c(-c4cn(CCCO)nc4-c4ccc(F)cc4)ccnc3[nH]2)CC1")
0.88
>>> recorded_number("CC(C)(O)CCn1ncc(-c2ncnc3oc(-c4ccccc4)nc23)c1-c1ccc(F)cc1")
2.29
>>> recorded_number("Fc1ccc(-c2nn(C3COC3)cc2-c2ncnc3oc(-c4ccccc4)cc23)cc1")
-0.28
>>> recorded_number("O=S1(=O)CC[C@H](Cn2cc(-c3ncnc4oc(-c5ccccc5)cc34)c(-c3ccc(F)cc3)n2)C1 (single isomer, unassigned)")
-0.41
>>> recorded_number("N#CCCn1cc(-c2ncnc3oc(-c4ccccc4)cc23)c(-c2ccc(F)cc2)n1")
-0.48
>>> recorded_number("CN1CCN(c2ccc(-c3cc4c(-c5cn(CCCO)nc5-c5ccc(F)cc5)ncnc4o3)cc2)CC1")
-0.67
>>> recorded_number("O=S1(=O)CCCC(Cn2cc(-c3ncnc4oc(-c5ccccc5)cc34)c(-c3ccc(F)cc3)n2)C1 (racemic)")
-0.39
>>> recorded_number("COC(C)(C)Cn1cc(-c2ncnc3oc(-c4ccccc4)cc23)c(-c2ccc(F)cc2)n1")
-0.04

Entry `CS(=O)(=O)NCCn1cc(-c2ncnc3oc(-c4ccccc4)cc23)c(-c2ccc(F)cc2)n1` — recorded log10 of IC50 = -0.80

Entry CS(=O)(=O)N1CC[C@H](n2cc(-c3ncnc4oc(-c5ccccc5)cc34)c(-c3ccc(F)cc3)n2)C1 (single isomer, unassigned) — recorded log10 of IC50 = -0.46

Entry `OCCCn1cc(-c2ccnc3[nH]c(-c4ccccc4)nc23)c(-c2ccc(F)cc2)n1` — recorded log10 of IC50 = 0.11

Entry `N#CCCCn1cc(-c2ncnc3oc(-c4ccccc4)cc23)c(-c2ccc(F)cc2)n1` — recorded log10 of IC50 = -0.43

Entry `CS(=O)(=O)CCn1cc(-c2ncnc3oc(-c4ccccc4)cc23)c(-c2ccc(F)cc2)n1` — recorded log10 of IC50 = -0.36

====

# target or test system: recombinant human EGFR exon 19 deletion/C797S double mutant protein (Homo sapiens (Human), UniProt P00533, C797S/DEL746-750)
# Sequence (P00533 other isoform, or with tags, fused parts or gaps C797S/del 1-668/del 746-750 limits assumed): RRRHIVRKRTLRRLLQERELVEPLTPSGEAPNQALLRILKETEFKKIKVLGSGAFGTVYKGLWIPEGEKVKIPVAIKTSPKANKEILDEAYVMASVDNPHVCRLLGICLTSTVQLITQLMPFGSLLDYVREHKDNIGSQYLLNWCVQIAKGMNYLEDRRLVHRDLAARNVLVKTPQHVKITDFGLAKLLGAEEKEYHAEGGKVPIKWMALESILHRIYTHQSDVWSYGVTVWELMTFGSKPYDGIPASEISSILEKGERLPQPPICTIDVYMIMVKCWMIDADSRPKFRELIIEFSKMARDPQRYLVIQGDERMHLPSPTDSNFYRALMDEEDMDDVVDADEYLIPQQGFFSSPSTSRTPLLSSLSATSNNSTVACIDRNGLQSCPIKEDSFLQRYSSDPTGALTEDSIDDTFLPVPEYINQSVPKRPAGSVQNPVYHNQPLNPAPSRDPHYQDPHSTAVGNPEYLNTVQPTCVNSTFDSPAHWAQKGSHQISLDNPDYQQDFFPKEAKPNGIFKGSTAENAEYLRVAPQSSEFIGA
# assay text: Biological Activity Assay C: biochemical assay against EGFR exon 19 deletion/C797S protein (EGFR d19/CS)
result type: IC50 (nM)
Output spec: scalar in nM, unitless text.

>>> recorded_number("CC(=O)NCCn1cc(-c2ncnc3oc(-c4ccccc4)cc23)c(-c2ccc(F)cc2)n1")
0.3

Entry `C[C@]1(O)C[C@@H](Cn2cc(-c3ncnc4oc(-c5ccccc5)cc34)c(-c3ccc(F)cc3)n2)C1` — recorded IC50 = 0.44

Entry CS(=O)(=O)N1CC[C@H](n2cc(-c3ncnc4oc(-c5ccccc5)cc34)c(-c3ccc(F)cc3)n2)C1 (single isomer, unassigned) — recorded IC50 = 0.2

Entry C[C@@H]1OCC[C@H]1n1cc(-c2ncnc3oc(-c4ccccc4)cc23)c(-c2ccc(F)cc2)n1 (single isomer, unassigned) [Example 213] — recorded IC50 = 0.51

====

# target or test system: recombinant human EGFR exon 19 deletion/C797S double mutant protein (Homo sapiens (Human), UniProt P00533, C797S/DEL746-750)
# assay text: Biological Activity Assay C: biochemical assay against EGFR exon 19 deletion/C797S protein (EGFR d19/CS)
result type: IC50 (nM)
Output spec: scalar in nM, unitless text.

>>> recorded_number("CN1CCN(Cc2cccc(-c3cc4c(-c5cn(C6CS(=O)(=O)C6)nc5-c5ccc(F)cc5)ncnc4o3)c2)CC1")
0.11
>>> recorded_number("CC1(C)C[C@@H](Cn2cc(-c3ncnc4oc(-c5ccccc5)cc34)c(-c3ccc(F)cc3)n2)O1 (single isomer, unassigned)")
0.59
>>> recorded_number("N#CCCCn1cc(-c2ncnc3oc(-c4ccccc4)cc23)c(-c2ccc(F)cc2)n1")
0.23
>>> recorded_number("Fc1ccc(-c2nn([C@H]3CCOC[C@@H]3F)cc2-c2ncnc3oc(-c4ccccc4)cc23)cc1 (racemic) [Example 151]")
1.45
>>> recorded_number("CN1CCN(c2ccc(-c3cc4c(-c5oc(CCCO)nc5-c5ccc(F)cc5)ccnc4[nH]3)cc2)CC1")
0.0769
>>> recorded_number("CS(=O)(=O)N1CCC(n2cc(-c3ncnc4oc(-c5ccccc5)cc34)c(-c3ccc(F)cc3)n2)C1 (racemic)")
0.3

Next compound, please.
Entry CC1(C)C[C@H](n2cc(-c3ncnc4oc(-c5ccccc5)cc34)c(-c3ccc(F)cc3)n2)CCO1 (single isomer, unassigned) — recorded IC50 = 4.88

====

# target or test system: recombinant human EGFR exon 19 deletion/C797S double mutant protein (Homo sapiens (Human), UniProt P00533, C797S/DEL746-750)
# assay text: Biological Activity Assay C: biochemical assay against EGFR exon 19 deletion/C797S protein (EGFR d19/CS)
result type: pIC50
Kindly note that pIC50 refers to -log10 of the concentration in mol/L and answer with the value alone.

Observe how each entry below is paired with its result.
>>> recorded_number("Cn1cnc(-c2cc3c(-c4cn([C@H]5CC5(F)F)nc4-c4ccc(F)cc4)ncnc3o2)c1 (single isomer, unassigned)")
9.67
>>> recorded_number("CN(c1cccc(-c2cc3c(-c4cn(C5CS(=O)(=O)C5)nc4-c4ccc(F)cc4)ncnc3o2)c1)S(C)(=O)=O")
9.85
>>> recorded_number("N=[S@@]1(=O)CC[C@@H](n2cc(-c3ncnc4oc(-c5ccccc5)cc34)c(-c3ccc(F)cc3)n2)C1 (single isomer, unassigned)")
10.05
>>> recorded_number("O=S1(=O)CC(n2cc(-c3ncnc4oc(-c5nccs5)cc34)c(-c3ccc(F)cc3)n2)C1")
9.38
>>> recorded_number("CNC(=O)c1cncc(-c2cc3c(-c4cn(C5CS(=O)(=O)C5)nc4-c4ccc(F)cc4)ncnc3o2)c1")
8.76

Entry `CN1CCN(c2ccc(-c3nc4c(-c5cn(CCCO)nc5-c5ccc(F)cc5)ncnc4[nH]3)cc2)CC1` — recorded pIC50 = 9.68

Entry `Fc1ccc(-c2nn(CC3CC(F)(F)C3)cc2-c2ncnc3oc(-c4ccccc4)cc23)cc1` — recorded pIC50 = 8.54

Entry `Cc1nc(-c2cc3c(-c4cn(CC(C)(C)O)nc4-c4ccc(F)cc4)ncnc3o2)ccc1F` — recorded pIC50 = 9.51

Entry `COc1ncccc1-c1cc2c(-c3cn(CC(F)(F)CO)nc3-c3ccc(F)cc3)ncnc2o1` — recorded pIC50 = 9.69

Entry `Cn1cc(-c2cc3c(-c4cn(C5CS(=O)(=O)C5)nc4-c4ccc(F)cc4)ncnc3o2)cn1` — recorded pIC50 = 10.30

====

# target or test system: recombinant human EGFR exon 19 deletion/C797S double mutant protein (Homo sapiens (Human), UniProt P00533, C797S/DEL746-750)
# assay text: Biological Activity Assay C: biochemical assay against EGFR exon 19 deletion/C797S protein (EGFR d19/CS)
pIC50 reference
Kindly note that pIC50 refers to -log10 of the concentration in mol/L and answer with the value alone.

>>> recorded_number("O=S1(=O)CCCC(Cn2cc(-c3ncnc4oc(-c5ccccc5)cc34)c(-c3ccc(F)cc3)n2)C1 (racemic) [Example 115]")
9.51

Next molecule, please.
Entry Cn1cncc1-c1cc2c(-c3cn(C4CS(=O)(=O)C4)nc3-c3ccc(F)cc3)ncnc2o1 [Example 217] — recorded pIC50 = 9.56

====

# target or test system: recombinant human EGFR L858R/C797S double mutant protein (Homo sapiens (Human), UniProt P00533, C797S/L858R)
# assay text: Biological Activity Assay B: biochemical assay against EGFR L858R/C797S protein (EGFR LR/CS)
pIC50 reference
Kindly note that pIC50 refers to -log10 of the concentration in mol/L and answer with the value alone.

Observe how each entry below is paired with its result.
>>> recorded_number("CC(C)(C(N)=O)n1cc(-c2ncnc3oc(-c4ccccc4)cc23)c(-c2ccc(F)cc2)n1 [Example 77]")
8.87
>>> recorded_number("CNC(=O)CCc1nc(-c2ccc(F)cc2)c(-c2ncnc3oc(-c4ccccc4)cc23)o1 [Example 36]")
8.95
>>> recorded_number("NC(=O)CCc1nc(-c2ccc(F)cc2)c(-c2ncnc3oc(-c4ccccc4)cc23)o1 [Example 49]")
8.47

Entry CC(=O)N1CC(n2cc(-c3ncnc4oc(-c5ccccc5)cc34)c(-c3ccc(F)cc3)n2)C1 [Example 86] — recorded pIC50 = 8.20
